Details: 298.15 K; 101.33 kPa; Liquid; Vibrating tube method
Tag: YES if measured mass density is not below 900 kg/m3, NO if it is.

A selection of reference data follows.
>>> df
                            compound  classification
0          CCCC(=O)O [butanoic acid]             YES
1  C[S+](C)[O-] [dimethyl sulfoxide]             YES
2                 CCCCCC=O [hexanal]              NO
3               CCCCCCC=O [heptanal]              NO
4               CC(C)O [propan-2-ol]              NO

As a next step, examine the compound that follows.
Lookup: Is mass density for CCCCC(=O)O [pentanoic acid] at or above 900 kg/m3?
Found: YES
